Biological target: cyclooxygenase (Rattus norvegicus, UniProt Q63921)
Construct: RBL-1 intact cell cyclooxygenase IC50 values; endogenous in cells
Sequence (Q63921 27-602): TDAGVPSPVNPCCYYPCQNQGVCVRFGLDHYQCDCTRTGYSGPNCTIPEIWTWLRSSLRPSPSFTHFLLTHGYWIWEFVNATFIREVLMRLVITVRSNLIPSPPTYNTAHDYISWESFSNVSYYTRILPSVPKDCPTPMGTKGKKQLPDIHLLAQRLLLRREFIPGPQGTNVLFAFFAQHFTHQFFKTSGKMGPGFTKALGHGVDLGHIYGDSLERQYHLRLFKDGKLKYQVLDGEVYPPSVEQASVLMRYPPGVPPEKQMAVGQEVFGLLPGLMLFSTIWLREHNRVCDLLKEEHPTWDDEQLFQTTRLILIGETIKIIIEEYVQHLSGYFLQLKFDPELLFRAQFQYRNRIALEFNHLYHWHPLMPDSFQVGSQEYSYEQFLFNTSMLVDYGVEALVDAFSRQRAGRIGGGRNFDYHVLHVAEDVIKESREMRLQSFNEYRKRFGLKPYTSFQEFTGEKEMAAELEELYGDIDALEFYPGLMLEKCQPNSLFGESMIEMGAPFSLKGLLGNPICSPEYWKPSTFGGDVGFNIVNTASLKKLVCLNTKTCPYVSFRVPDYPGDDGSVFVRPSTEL
Assay: ARBC Whole Cell Cyclooxygenase Assay in RBL-1 cells (PGF2α RIA)
Details: RBL-1 intact cell cyclooxygenase; A23187 5 μM
pIC50: −log10 of the molar value.
Quantity measured: pIC50

> print(dat)
                                   compound                              assay.target  quantity.measured  data.value
1  COC(=O)Cn1nc(C=Cc2cc(OC)c(O)c(OC)c2)cc1C [Example 10H]  cyclooxygenase (Rattus norvegicus, UniProt Q63921)              pIC50      < 4.52
2  CCOC(=O)Cn1nc(C)cc1/C=C/c1cc(OC)c(O)c(OC)c1 [Example 10D]  cyclooxygenase (Rattus norvegicus, UniProt Q63921)              pIC50      < 4.52
3  Cc1cc(C=Cc2cc(Cl)cc(Cl)c2O)on1 [Example 32J]  cyclooxygenase (Rattus norvegicus, UniProt Q63921)              pIC50      < 4.52
4  Cc1cc(C=Cc2cc(C(C)(C)C)c(O)c(C(C)(C)C)c2)n(CC(=O)O)n1 [Example 10P]  cyclooxygenase (Rattus norvegicus, UniProt Q63921)              pIC50      < 4.52
5  COC(=O)C(=Cc1cc(OC)c(O)c(OC)c1)c1cc(C)no1  cyclooxygenase (Rattus norvegicus, UniProt Q63921)              pIC50      < 4.60

---

Catalogue of compounds with associated pIC50
Molecular target: 5-lipoxygenase (Rattus norvegicus)
Construct: ARBL/ARBC Whole Cell 5-Lipoxygenase and Cyclooxygenase Assays; endogenous in cells
Sequence (P12527 1-673): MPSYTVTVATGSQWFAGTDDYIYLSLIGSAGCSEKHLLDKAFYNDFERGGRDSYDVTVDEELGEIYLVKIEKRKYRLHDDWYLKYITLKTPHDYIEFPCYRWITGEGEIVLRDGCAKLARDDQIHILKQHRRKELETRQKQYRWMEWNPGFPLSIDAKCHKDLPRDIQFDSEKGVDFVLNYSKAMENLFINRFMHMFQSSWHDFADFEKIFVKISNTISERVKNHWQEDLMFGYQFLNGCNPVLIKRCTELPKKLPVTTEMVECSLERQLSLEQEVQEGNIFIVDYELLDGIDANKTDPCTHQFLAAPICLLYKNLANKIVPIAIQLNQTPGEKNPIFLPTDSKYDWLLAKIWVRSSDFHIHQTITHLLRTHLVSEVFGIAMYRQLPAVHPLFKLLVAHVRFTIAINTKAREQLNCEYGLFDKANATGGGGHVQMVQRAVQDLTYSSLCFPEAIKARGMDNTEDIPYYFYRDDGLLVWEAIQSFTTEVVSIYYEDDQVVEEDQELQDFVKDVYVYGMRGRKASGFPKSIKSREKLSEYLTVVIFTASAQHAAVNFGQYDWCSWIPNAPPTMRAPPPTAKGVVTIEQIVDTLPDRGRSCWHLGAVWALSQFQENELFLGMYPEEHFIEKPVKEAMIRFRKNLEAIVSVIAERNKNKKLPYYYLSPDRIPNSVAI
Test: ARBL Whole Cell 5-Lipoxygenase Assay in RBL-1 cells (LTB4 RIA)
Settings: RBL-1 intact cell 5-lipoxygenase; A23187 5 μM
pIC50: −log10 of the molar value.
Quantity measured: pIC50

> print(dat)
                                    compound  data.value
 1  COc1cc(C=Cc2cc(C)n(CC(=O)O)n2)cc(OC)c1O [Example 10N]      < 4.70
 2  COc1cc(C=Cc2cc(C)nn2CC(=O)O)ccc1O [Example 10L]      < 4.70
 3  COc1cc(C=Cc2cc(C)n(CC(=O)O)n2)ccc1O [Example 10K]      < 4.70
 4  COC(=O)C(=Cc1cc(Cl)c(O)c(Cl)c1)c1cc(C)no1 [Example 41]      < 4.52
 5  COC(=O)Cn1nc(C)cc1C=Cc1ccc(O)c(OC)c1 [Example 10I]      < 5.00
 6  COc1cc(C=Cc2cc(CCO)on2)ccc1O [Example 36A]        4.67
 7  Cc1cc(C(=Cc2cc(C)c(O)c(C)c2)C(=O)O)on1 [Example 52]      < 4.70
 8  COC(=O)Cn1nc(C=Cc2cc(OC)c(O)c(OC)c2)cc1C [Example 10H]        5.02
 9  COC(=O)C(=Cc1cc(OC)c(O)c(OC)c1)c1cc(C)no1 [Example 40]      < 5.00
10  COC(=O)Cn1nc(C=Cc2ccc(O)c(OC)c2)cc1C [Example 10J]      < 5.00
11  COc1cc(C=Cc2cc(-c3ccccc3)no2)cc(OC)c1O [Example 32D]      > 6.00
12  Cc1cc(C=Cc2cc(C(C)(C)C)c(O)c(C(C)(C)C)c2)nn1CC(=O)O [Example 10Q]      < 4.52
13  CCOC(=O)c1cc(C=Cc2ccc(O)c(OC)c2)n[nH]1 [Example 10]        5.28
14  COc1cc(C=Cc2cc(C)nn2CC(=O)O)cc(OC)c1O [Example 10M]      < 4.52
15  COc1cc(C=Cc2cc(C=Cc3ccc(O)c(OC)c3)[nH]n2)ccc1O [Example 1]        5.80
16  COC(=O)C(=Cc1cc(Br)c(O)c(OC)c1)c1cc(C)no1 [Example 46A]      < 4.52
